Taken from paper PMC8467576.

- method.summary: Pharmacokinetics in wild type C57BL6 mice (brain and serum, UHPLC-MS/MS)
- Assay type: in vivo
- test.context: C57BL/6, mouse, ip, brain, 10 mg/kg I.P., over 12 h
- Protocol: Wild type C57BL6 mice were injected with 10 mg/kg BK50118-C versus DMSO, and the brain and serum were isolated at 0, 1, 2, 4, 6, 8 and 12 h; extracted in water and examined by mass spectrometry. […] Elimination (T1/2) was 2.32 h for brain and 1.84 h in serum. […] The concentrations of BK50118-C in the brain tissue and serum samples were measured by ultrahigh performance liquid chromatography tandem mass spectrometry (UHPLC-MS/MS). […]
measured.endpoint: AUC (µM·h)
Give bare numbers, in µM·h.

Fill in reported AUC for this entry: Fc1ccc2nccc(OCc3ccccc3)c2c1
0.164
